assay_system: Solute carrier family 15 member 1 (Rattus norvegicus)
Sequence (P51574 whole entry): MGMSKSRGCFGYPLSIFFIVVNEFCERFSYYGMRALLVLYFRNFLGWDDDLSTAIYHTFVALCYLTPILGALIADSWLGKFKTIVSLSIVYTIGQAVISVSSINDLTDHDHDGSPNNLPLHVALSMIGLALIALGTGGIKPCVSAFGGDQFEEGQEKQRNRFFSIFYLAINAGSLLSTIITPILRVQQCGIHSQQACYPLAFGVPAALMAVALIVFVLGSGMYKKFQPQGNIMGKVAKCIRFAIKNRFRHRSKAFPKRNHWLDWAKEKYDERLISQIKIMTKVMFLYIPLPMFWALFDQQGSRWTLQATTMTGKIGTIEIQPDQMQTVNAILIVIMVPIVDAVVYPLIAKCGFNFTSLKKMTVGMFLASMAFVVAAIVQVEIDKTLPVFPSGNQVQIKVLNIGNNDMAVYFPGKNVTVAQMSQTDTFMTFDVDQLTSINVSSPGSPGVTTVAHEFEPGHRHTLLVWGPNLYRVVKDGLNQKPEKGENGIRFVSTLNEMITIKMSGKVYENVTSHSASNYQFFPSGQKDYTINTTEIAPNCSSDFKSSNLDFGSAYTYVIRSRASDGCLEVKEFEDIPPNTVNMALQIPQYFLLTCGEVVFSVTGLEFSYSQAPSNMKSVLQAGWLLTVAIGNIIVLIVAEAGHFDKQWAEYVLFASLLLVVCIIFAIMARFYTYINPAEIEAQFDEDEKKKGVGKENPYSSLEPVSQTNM
method_summary: TP_TRANSPORTER: inhibition of Gly-Sar uptake (Gly-Sar: 20 uM) in PEPT1-expressing LLC-PK1 cells
endpoint_label: pIC50
Give bare numbers, as −log10 of the molar value.

In: // lookup pIC50 | system=Solute carrier family 15 member 1 (Rattus norvegicus) | key= CC(C)[C@H]1CC[C@H](C(=O)N[C@H](Cc2ccccc2)C(=O)O)CC1 [NATEGLINIDE]
Out: 3.80
